Reference for the values: paper PMC4522133

Conditions: Patient ID 197, CYP2D6 functional group PM/PM
measured.parameter: plasma concentration (ng/mL)
Expressed in ng/mL, but write only the number.

compound	value.units	measurement
CC/C(=C(/c1ccc(OCCNC)cc1)c1ccc(O[C@@H]2O[C@H](C(=O)O)[C@@H](O)[C@H](O)[C@H]2O)cc1)c1ccccc1 [4-OH-NDM-Tam-Gluc]	ng/mL	0.763

Pending compound:
Entry under test: CC/C(=C(\c1ccccc1)c1ccc(OCCN(C)C)cc1)c1ccc(O)cc1 [4'-OH-Tam] . Its plasma concentration was 4.25

* * *

Conditions: Patient ID 198, CYP2D6 functional group EM/EM
// NB: equality with 2 ng/mL counts as FALSE; only plasma concentration strictly below is TRUE

Here are 4 compounds together with their reported answers.
compound	assigned.label
CC/C(=C(\c1ccc(O)cc1)c1ccc(OCCNC)cc1)c1ccccc1 [(Z)-Endoxifen 3-OH-NDM-Tam]	FALSE
CCC(=C(c1ccccc1)c1ccc(OCCNC)cc1)c1ccc(O)cc1	FALSE
CC/C(=C(\c1ccccc1)c1ccc(OCCN(C)C)cc1)c1ccc(O)cc1	FALSE
CC/C(=C(\c1ccccc1)c1ccc(OCCN(C)C)cc1)c1ccccc1	FALSE

Hello, I'm reviewing records and need to know if plasma concentration of "CC/C(=C(/c1ccc(OCCNC)cc1)c1ccc(O[C@@H]2O[C@H](C(=O)O)[C@@H](O)[C@H](O)[C@H]2O)cc1)c1ccccc1" is below 2 ng/mL. Could you check? TRUE
